Just for reference, patent US20180311217A1 is where these values come from.

assay.comment: Study TMX-99-001: febuxostat plasma pharmacokinetics
Type: in vivo, human
experimental.parameters: human, plasma, oral, 40 mg, IR 40 mg single dose; mean; read-out: AUC0-4

| compound | partial AUC from 0 to 4 hours, ng·h/mL |
| --- | --- |
| Cc1nc(-c2ccc(OCC(C)C)c(C#N)c2)sc1C(=O)O [Febuxostat] | 3350 |

----------
assay.comment: Study TMX-99-001: febuxostat plasma pharmacokinetics
Assay type: in vivo, human
experimental.parameters: human, plasma, oral, 180 mg, IR 180 mg single dose; mean; read-out: AUC4-24
reported.metric: AUC

| compound | reported.metric | val |
| --- | --- | --- |
| Cc1nc(-c2ccc(OCC(C)C)c(C#N)c2)sc1C(=O)O [Febuxostat] | AUC | 7150 ng·h/mL |

----------
assay.comment: Study TMX-99-001: febuxostat plasma pharmacokinetics
Assay type: in vivo, human
experimental.parameters: human, plasma, oral, 30 mg, IR 30 mg BID; mean; following AM and PM dose; read-out: AUC4-24

| smiles.record | unit.abbrev | AUC |
| --- | --- | --- |
| Cc1nc(-c2ccc(OCC(C)C)c(C#N)c2)sc1C(=O)O | ng·h/mL | 3980 |

----------
assay.comment: Study TMX-99-001: febuxostat plasma pharmacokinetics
Assay type: in vivo, human
experimental.parameters: human, plasma, oral, 30 mg, IR 30 mg single dose; mean; read-out: AUC24

| smiles.record | AUC [ng·h/mL] |
| --- | --- |
| Cc1nc(-c2ccc(OCC(C)C)c(C#N)c2)sc1C(=O)O | 2520 |

----------
assay.comment: Study TMX-99-001: febuxostat plasma pharmacokinetics
Type: in vivo, human
experimental.parameters: human, plasma, oral, 30 mg, IR 30 mg single dose; mean

| smiles.record | MRT inf |
| --- | --- |
| Cc1nc(-c2ccc(OCC(C)C)c(C#N)c2)sc1C(=O)O | 4.99 h |

----------
assay.comment: Study TMX-99-001: febuxostat plasma pharmacokinetics
Assay type: in vivo, human
experimental.parameters: human, plasma, oral, 70 mg, IR 70 mg single dose; mean
reported.metric: MRT inf

| smiles.record | val |
| --- | --- |
| Cc1nc(-c2ccc(OCC(C)C)c(C#N)c2)sc1C(=O)O | 5 h |
